B1: CPEB3 Ribozyme (parent)
chain: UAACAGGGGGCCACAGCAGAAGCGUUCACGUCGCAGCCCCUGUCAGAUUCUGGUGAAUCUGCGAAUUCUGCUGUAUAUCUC

Variants of: B1
Assay Notes: self-cleavage, relative activity (ratio to wild type); higher = more cleavage; in vitro, sequencing
Observation Type: self-cleavage
// no unit, no text: just the number

These recorded examples may help you get a feel for the data.
G42A A75G | 0.28
C71U U80A | 0.72

Given G6U C32U , state its recorded self-cleavage. 0.08

Next record, please: U69G C79U 0.72

Next record, please: U60A A77G 0.56

Next record, please: A20G C39U 0.63

Next record, please: G46U U69A 0.22

Next record, please: A13G U66A 0.45

Next record, please: A20G G46U 0.23

Next record, please: A64G U72G 0.87

Next record, please: U48C U49C 0.32
